// data source = patent US20240261398A1

- Tested on: A/California/07/2009 virus (H1N1; CA07)
- Design: species or system BALB/c mice
- experimental_conditions: mouse, in vivo
parameter: Antibody titers in primary screening, Vaccine + compound

compound=Cc1cc2nc3c(=O)[nH]c(=O)nc-3n(C[C@H](O)[C@H](O)[C@H](O)CO)c2cc1C observed=2560.00
compound=CC(C)C1=CC2=CC[C@@H]3[C@](C)(CCC[C@@]3(C)C(=O)O)[C@H]2CC1 observed=533.33
compound=Cn1cnc2c1c(=O)[nH]c(=O)n2C observed=1333.33
compound=c1ccc2cnccc2c1 observed=1493.33
compound=CC(/C=C/C=C(\C)C(=O)O[C@@H]1O[C@H](CO[C@@H]2O[C@H](CO)[C@@H](O)[C@H](O)[C@H]2O)[C@@H](O)[C@H](O)[C@H]1O)=C\C=C\C=C(C)\C=C\C=C(/C)C(=O)O[C@@H]1O[C@H](CO[C@@H]2O[C@H](CO)[C@@H](O)[C@H](O)[C@H]2O)[C@@H](O)[C@H](O)[C@H]1O observed=1066.67
compound=CCN(Cc1cccc(S(=O)(=O)[O-])c1)c1ccc(C(=C2C=CC(=[N+](CC)Cc3cccc(S(=O)(=O)[O-])c3)C=C2)c2ccc(O)cc2S(=O)(=O)[O-])cc1.[Na+].[Na+] observed=2133.33
compound=CC=Cc1ccc(O)c(OC)c1 observed=2986.67
compound=CC1=C(/C=C/C(C)=C/C=C/C(C)=C/C=C/C=C(C)/C=C/C=C(C)/C=C/C2=C(C)CCCC2(C)C)C(C)(C)CCC1 observed=960.00
compound="O.O=P([O-])([O-])OCC(O)CO.[Ca+2] (stereo not shown)" observed=1920.00
compound=O=C1/C(=C2\Nc3ccc(S(=O)(=O)[O-])cc3C2=O)Nc2ccc(S(=O)(=O)[O-])cc21.[Na+].[Na+] observed=1280.00
compound=CC(C)=CCC[C@@H](C)CC=O observed=333.33
compound=C[C@@H]1O[C@@H](OC[C@H]2O[C@@H](Oc3c(-c4ccc(O)c(O)c4)oc4cc(O)cc(O)c4c3=O)[C@H](O)[C@@H](O)[C@@H]2O)[C@H](O)[C@H](O)[C@H]1O observed=2560.00
compound="CC(C)=CCCC(C)CCO (racemic) [(+/−)-Citronellol]" observed=960.00
